Values from patent US20260216347A1

# Target Desc: IRAK3 (Homo sapiens, UniProt Q9Y616)
# Construct: IRAK Endogenous HTRF Degradation Assay; endogenous in cells
# Sequence (Q9Y616 whole entry): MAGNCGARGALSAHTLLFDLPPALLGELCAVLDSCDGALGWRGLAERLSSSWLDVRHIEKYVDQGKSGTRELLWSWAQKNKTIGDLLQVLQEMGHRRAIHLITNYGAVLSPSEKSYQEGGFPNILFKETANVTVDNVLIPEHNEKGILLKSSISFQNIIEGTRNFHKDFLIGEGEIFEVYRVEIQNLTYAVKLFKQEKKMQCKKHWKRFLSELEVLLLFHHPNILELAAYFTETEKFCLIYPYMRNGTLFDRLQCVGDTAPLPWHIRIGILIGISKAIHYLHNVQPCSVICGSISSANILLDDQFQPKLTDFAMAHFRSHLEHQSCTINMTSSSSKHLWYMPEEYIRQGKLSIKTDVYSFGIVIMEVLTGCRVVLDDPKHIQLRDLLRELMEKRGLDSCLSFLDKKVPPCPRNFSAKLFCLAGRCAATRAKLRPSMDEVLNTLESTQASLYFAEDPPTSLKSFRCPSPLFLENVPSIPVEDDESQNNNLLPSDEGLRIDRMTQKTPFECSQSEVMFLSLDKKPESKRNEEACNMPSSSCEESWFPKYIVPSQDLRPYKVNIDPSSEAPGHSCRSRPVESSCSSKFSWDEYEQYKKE
# Measurement Notes: IRAK endogenous HTRF degradation assay (Total-IRAK3 HTRF kit)
# Assay type: cell-based
# Condition Parameters: overnight incubation, lowest percentage of protein remaining
# Experimental: Example B2. IRAK Endogenous HTRF Degradation Assay Cells (~50 k) were plated in Cisbio 96-well low volume white plates (Cisbio: cat #66PL96005). Compounds were dissolved in DMSO and a 3-fold serial dilution was performed using a TECAN D300E. […] Post incubation with antibodies the HTRF signal was measured using a Perkin Elmer Envision reader and the HTRF signal was calculated using formula: (Emission at 665 nm/Emission at 615 nm)*10,000. […] Dmax was calculated from Ymin (% Dmax=100−Ymin). […]
Attribute Measured: IRAK3 HTRF degradation Ymin (%)

# example entries with known answers
Compound	Target Desc	Output Unit	Reported Measurement
Cc1cc(-c2cnc(Nc3cnn(C4CCN(CCN5[C@H](C)CN(c6ccc(C7CCC(=O)NC7=O)cc6)C[C@@H]5C)CC4)c3)c3nccn23)c(F)cc1F (stereo partly drawn) [Compound 13]	IRAK3 (Homo sapiens, UniProt Q9Y616)	%	11
O=C1CCC(c2ccc(N3CCN(CCN4CCC(n5cc(Nc6ncc(-c7ccc(F)cc7)n7ccnc67)cn5)CC4)CC3)cc2)C(=O)N1 (stereo not drawn) [Compound 74]	IRAK3 (Homo sapiens, UniProt Q9Y616)	%	9.8
O=C1CCC(c2ccc(N3CCN(CCN4CCC(n5cc(Nc6ncc(-c7ccccc7F)n7ccnc67)cn5)CC4)CC3)cc2)C(=O)N1 (stereo not drawn) [Compound 75]	IRAK3 (Homo sapiens, UniProt Q9Y616)	%	9.8
Cc1cc(-c2cnc(Nc3cnn(C4CCN(CCN5CCN(c6ccc(C7CCC(=O)NC7=O)c(Cl)c6)CC5)CC4)c3)c3nccn23)c(F)cc1F (stereo not drawn) [Compound 54]	IRAK3 (Homo sapiens, UniProt Q9Y616)	%	15

1: Cc1cc(-c2cnc(Nc3cnn([C@H]4CCN(CCN5CCN(c6ccc(C7CCC(=O)NC7=O)cc6)CC5)C[C@@H]4F)c3)c3nccn23)c(F)cc1F (stereo partly drawn) [Compound 72]
2: Cc1cc(-c2ccc(Nc3cnn(C4CCN(CCN5CCN(c6ccc(C7CCC(=O)NC7=O)cc6)CC5)CC4)c3)c3nccn23)c(F)cc1F (stereo not drawn) [Compound 12]
Ask | Which gives the smaller IRAK3 HTRF degradation Ymin number: 1 or 2 ? Answer by quoting the chosen item's label.
Reply | 1
